Entry source: paper PMC8921294

Biological target: LonP1 F547A/C576V (Homo sapiens, UniProt P36776, C576V/F547A)
Construct: hexa-histidine (N)
Sequence (P36776 68-959 F547A/C576V): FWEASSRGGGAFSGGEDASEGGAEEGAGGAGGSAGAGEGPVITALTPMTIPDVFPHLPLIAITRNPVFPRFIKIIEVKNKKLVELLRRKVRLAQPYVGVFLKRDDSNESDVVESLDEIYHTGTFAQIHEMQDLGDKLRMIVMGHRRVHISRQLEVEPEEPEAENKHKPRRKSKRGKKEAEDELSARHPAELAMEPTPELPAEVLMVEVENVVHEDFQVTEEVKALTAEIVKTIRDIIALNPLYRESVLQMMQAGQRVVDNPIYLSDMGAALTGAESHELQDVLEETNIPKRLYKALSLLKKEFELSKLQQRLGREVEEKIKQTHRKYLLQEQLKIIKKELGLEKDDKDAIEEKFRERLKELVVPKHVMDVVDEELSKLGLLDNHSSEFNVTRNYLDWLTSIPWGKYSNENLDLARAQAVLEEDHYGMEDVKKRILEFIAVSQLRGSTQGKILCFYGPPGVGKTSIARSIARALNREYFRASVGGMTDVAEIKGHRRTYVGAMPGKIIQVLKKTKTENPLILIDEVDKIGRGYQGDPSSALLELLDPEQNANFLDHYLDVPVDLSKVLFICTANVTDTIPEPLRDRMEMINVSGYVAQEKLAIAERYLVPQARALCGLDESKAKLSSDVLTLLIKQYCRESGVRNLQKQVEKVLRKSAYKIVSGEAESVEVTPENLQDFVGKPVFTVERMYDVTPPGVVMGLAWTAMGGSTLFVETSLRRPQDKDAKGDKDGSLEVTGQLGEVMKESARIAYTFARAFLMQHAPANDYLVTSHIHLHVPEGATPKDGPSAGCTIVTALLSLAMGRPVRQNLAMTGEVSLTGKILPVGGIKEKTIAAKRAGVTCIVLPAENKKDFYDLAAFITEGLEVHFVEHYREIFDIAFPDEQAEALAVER
Test: Endpoint ATPase assay, LonP1 F547A/C576V
Settings: end-point ATPase assay, read-out: CDDO IC50
Excerpt: Human mitochondrial LonP1 and mutants lacking the predicted mitochondrial targeting sequence were fused to an N-terminal hexa-histidine affinity tag, expressed in Rosetta 2 E. Coli, and purified using a nickel agarose column as previously described ([72]) and protein concentration and buffer exchange carried out using Amicon Ultra centrifugal filtration. LonP1 mutant constructs were obtained from the PCR-based QuikChange Site-Directed Mutagenesis Kit. […]
measured-property: IC50
Give the value; after it, write the unit.

Query: Which IC50 is reported with LonP1 F547A/C576V (Homo sapiens, UniProt P36776, C576V/F547A) for this entry: CC1(C)CC[C@]2(C(=O)O)CC[C@]3(C)[C@H](C(=O)C=C4[C@@]5(C)C=C(C#N)C(=O)C(C)(C)[C@@H]5CC[C@]43C)[C@@H]2C1 ?
Result: 1800 nM
